Test system: MCF7 cells (ECACC #86012803)
assay name: Cellular growth inhibition assay, MCF7 cells purchased from ECACC
Format: cell-based
experimental context: Homo sapiens, 144 h; MCF7 cells purchased from ECACC (#86012803); six days treatment; CellTiter-Glo 2.0 viability
Listed here: items and their measured GI50.

compound	GI50
COc1cc(N2CCC(O)(CN3CCN(c4ccc([C@H]5c6ccc(O)cc6CC[C@@H]5c5ccc(F)cc5)cc4F)CC3)CC2)ccc1C1=N[C@@H](C)c2nnc(C)n2-c2sc(C)c(C)c21 [III-352]	< 50 nM
COc1cc(N2CCN(CC3(O)CCN(c4ccc(C5=N[C@@H](C)c6nnc(C)n6-c6sc(C)c(C)c65)c(F)c4)CC3)CC2)ccc1[C@@H]1c2ccc(O)cc2CC[C@@H]1c1ccc(C(F)(F)F)cc1 [III-355]	< 50 nM

Give the observed GI50 of COc1cc(N2CCC(O)(CN3CCC(c4cc(F)c([C@H]5c6ccc(O)cc6CC[C@H]5c5ccc(F)cc5)c(F)c4)CC3)CC2)ccc1C1=N[C@@H](C)c2nnc(C)n2-c2sc(C)c(C)c21 [III-359] for MCF7 cells (ECACC #86012803).
50 to 500 nM
